Assay: Cytotoxicity against African green monkey BGM cells assessed as decrease in cell viability after 48 hrs by MTT assay
Type: toxicity, cell-based
Settings: chlorocebus aethiops, read-out: LD50
experimental_readout: CC50 at 48 h (µM)
Value expressed in µM; do not type the unit.

Ask: Annotate the molecule "COC(=O)CNC(=O)[C@]12CCC(C)(C)C[C@H]1C1=CC[C@@H]3[C@@]4(C)CC[C@H](O)[C@@](C)(CO)[C@@H]4CC[C@@]3(C)[C@]1(C)CC2" with its measured CC50 at 48 h.
Reply: 20

Ask: Hello, please tell me recorded CC50 at 48 h for this one: "CC1(C)CC[C@]2(C(=O)OCc3ccc(Br)cc3)CC[C@]3(C)C(=CC[C@@H]4[C@@]5(C)CC[C@H](O)[C@@](C)(CO)[C@@H]5CC[C@]43C)[C@@H]2C1"
Reply: 116

Ask: Using known records, supply CC50 at 48 h for "CC1(C)CC[C@]2(C(=O)NCc3cn(Cc4ccc(Cl)cc4)nn3)CC[C@]3(C)C(=CC[C@@H]4[C@@]5(C)CC[C@H](O)[C@@](C)(CO)[C@@H]5CC[C@]43C)[C@@H]2C1"
Reply: 50

Ask: Please list CC50 at 48 h recorded for the molecule "CC1(C)CC[C@]2(C(=O)NCc3cn(Cc4ccccc4[N+](=O)[O-])nn3)CC[C@]3(C)C(=CC[C@@H]4[C@@]5(C)CC[C@H](O)[C@@](C)(CO)[C@@H]5CC[C@]43C)[C@@H]2C1"
Reply: 111

Ask: Report CC50 at 48 h for "CC1(C)CC[C@]2(C(=O)OCc3cn(Cc4ccc(F)cc4F)nn3)CC[C@]3(C)C(=CC[C@@H]4[C@@]5(C)CC[C@H](O)[C@@](C)(CO)[C@@H]5CC[C@]43C)[C@@H]2C1"
Reply: 158

Ask: Could you please provide reported CC50 at 48 h for "CC1(C)CC[C@]2(C(=O)OCc3cn(Cc4cccc(Br)c4)nn3)CC[C@]3(C)C(=CC[C@@H]4[C@@]5(C)CC[C@H](O)[C@@](C)(CO)[C@@H]5CC[C@]43C)[C@@H]2C1" ? Thanks!
Reply: 78

* * *

I'd be grateful if you could share measured CC50 at 48 h for these entries.
Assay: Cytotoxicity against human HepG2 cells assessed as decrease in cell viability after 48 hrs by MTT assay
Assay type: toxicity, cell-based
Conditions: read-out: LD50

Ask: Given "CC1(C)CC[C@]2(C(=O)O)CC[C@]3(C)C(=CC[C@@H]4[C@@]5(C)CC[C@H](O)[C@@](C)(CO)[C@@H]5CC[C@]43C)[C@@H]2C1" , respond with its CC50 at 48 h.
Reply: < 1 mM

Ask: Please supply the value of reported CC50 at 48 h for the item "CC1(C)CC[C@]2(C(=O)OCc3cn(Cc4ccc(F)cc4F)nn3)CC[C@]3(C)C(=CC[C@@H]4[C@@]5(C)CC[C@H](O)[C@@](C)(CO)[C@@H]5CC[C@]43C)[C@@H]2C1"
Reply: > 1 mM

Ask: Let me know recorded CC50 at 48 h for "CC1(C)CC[C@]2(C(=O)NCc3cn(Cc4ccccc4[N+](=O)[O-])nn3)CC[C@]3(C)C(=CC[C@@H]4[C@@]5(C)CC[C@H](O)[C@@](C)(CO)[C@@H]5CC[C@]43C)[C@@H]2C1" , thanks.
Reply: > 1 mM
